# Assay remarks: protein stability index of a GFP-peptide fusion (yeast GPS) (PSI 1-4); higher = more stable; sorted into four equal gates, so the index is relative within each strain
# Applied conditions: san1∆
Recorded endpoint: protein stability index
// keep it numeric: no unit symbol after the value

For record LGWIHTQTEELKFMAAS [PRP8] the listed protein stability index is 2.64

For record KAIFQFVCRGMAATQTI [ECM29] the listed protein stability index is 1.46

For record IVKTTTKQRLDAYYDLE [PRP8] the listed protein stability index is 3.07

For record ALMRCSFEETVEILFEA [RPO21] the listed protein stability index is 3.06

For record ARYVIATSTKVSVEGVN [RPL6A] the listed protein stability index is 1.47

For record IKIKSLEYEISKLKKET [YIL149C/MLP2] the listed protein stability index is 2.99

For record SYVNYRHMALLVDVMTT [RPO21] the listed protein stability index is 1.2

----------
Quick reference: protein stability index of the listed items.
# Assay remarks: protein stability index of a GFP-peptide fusion (yeast GPS) (PSI 1-4); higher = more stable; sorted into four equal gates, so the index is relative within each strain
# Applied conditions: doa10∆
// keep it numeric: no unit symbol after the value

Worked examples, 4 sequences total:
INSERT INTO results (construct_sequence, recorded_endpoint, measured) VALUES
  ('SDSLGPDTSNEICDLAY [SRB2]', 'protein stability index', 2.95),
  ('SYELIKEECQIEDDGII [CSN9]', 'protein stability index', 2.77),
  ('DINVESLTQSVCDLALR [PUP2]', 'protein stability index', 1.52),
  ('QQPNPLQDLISVYGLDD [ROX3]', 'protein stability index', 1.95);

For record STIEKDMKEYDSDKGSK [SMC2] the listed protein stability index is 3.25

For record TVKRGAAGIWTCSCCKK [RPL43A] the listed protein stability index is 1.68

For record KLSDIFLSKPSKALYPD [SNF2] the listed protein stability index is 2.53

For record FQAVIQKSINHPPDFKR [SNF2] the listed protein stability index is 2.8

----------
# Assay remarks: protein stability index of a GFP-peptide fusion (yeast GPS) (PSI 1-4); higher = more stable; sorted into four equal gates, so the index is relative within each strain
# Applied conditions: san1∆
Where protein stability index equals or exceeds 3, the correct label is t; where it does not, the label is f.

Known results for sequences:
INSERT INTO assay_data (construct_sequence, label) VALUES
  ('VNASVDVDQHGNDNNSD [SWI3]', 't'),
  ('NECIASTSNALKVLSGD [SNF12]', 'f'),
  ('NVDYYNVAHRIKEDIKK [SNF2]', 't');

Query: Test whether the sequence LHVVSKSSIEKDPSPEI [SIN4] records protein stability index of 3 or higher.
Reply: t

Query: Test whether the sequence VLSQFERSYPSEFANQN [ROX3] records protein stability index of 3 or higher.
Reply: f

Query: Test whether the sequence SQVKDSVTETESISQTP [SRP68] records protein stability index of 3 or higher.
Reply: t

Query: Test whether the sequence DLVLGKPLADLRPLFTR [YLR335W/NUP2] records protein stability index of 3 or higher.
Reply: f

Query: Test whether the sequence KNIPKTRYNRDYMLSMA [SNU114] records protein stability index of 3 or higher.
Reply: f

Query: Test whether the sequence INKIVEILTNQQRGITY [YGR119C/NUP57] records protein stability index of 3 or higher.
Reply: f

Query: Test whether the sequence DFKEVEDFLHFIVAEYI [SRB4] records protein stability index of 3 or higher.
Reply: t

Query: Test whether the sequence DVKLVLASNFDNFDYFN [MED1] records protein stability index of 3 or higher.
Reply: t

Query: Test whether the sequence VQKILPLSNEVFEISEN [SWI1] records protein stability index of 3 or higher.
Reply: f

Query: Test whether the sequence NLKVELKEQSEQLKEQM [SMC4] records protein stability index of 3 or higher.
Reply: t

Query: Test whether the sequence ICQIISSTITGDVVLAA [RPL5] records protein stability index of 3 or higher.
Reply: f

Query: Test whether the sequence HFNGIRRLDALVEKVYA [ITC1] records protein stability index of 3 or higher.
Reply: f

Query: Test whether the sequence LKESYSQKHNGRILKWL [CDC53] records protein stability index of 3 or higher.
Reply: f

Query: Test whether the sequence NVEMEEDVLVNQILMSV [RPL1A] records protein stability index of 3 or higher.
Reply: f

Query: Test whether the sequence FNVVDVGVDQLSIELEG [YJL039C/NUP192] records protein stability index of 3 or higher.
Reply: t

Query: Test whether the sequence LKGRVVEVCLADLQGSE [RPS1A] records protein stability index of 3 or higher.
Reply: f

Query: Test whether the sequence KKPGKIAKPNTANAKHT [SMB1] records protein stability index of 3 or higher.
Reply: f

Query: Test whether the sequence KVFDCGDNIVMSANGFA [PRE7] records protein stability index of 3 or higher.
Reply: f

These entries and their values trace back to the supplement of paper PMC9732359.
